molecular target: porcine TSH receptor (porcine thyroid membranes) (Sus scrofa, UniProt Q8SPP9); construct: Frozen porcine thyroid glands were purchased; tissue Pel-Freez Biologicals; experiment: Porcine thyroid membrane TSH radio-receptor assay (inhibition of 125I-bTSH binding); conditions: concentration inhibiting 125I-bTSH binding to porcine thyroid membrane by 50%; mean ± se of at least 3 assays
Sequence (Q8SPP9 22-764): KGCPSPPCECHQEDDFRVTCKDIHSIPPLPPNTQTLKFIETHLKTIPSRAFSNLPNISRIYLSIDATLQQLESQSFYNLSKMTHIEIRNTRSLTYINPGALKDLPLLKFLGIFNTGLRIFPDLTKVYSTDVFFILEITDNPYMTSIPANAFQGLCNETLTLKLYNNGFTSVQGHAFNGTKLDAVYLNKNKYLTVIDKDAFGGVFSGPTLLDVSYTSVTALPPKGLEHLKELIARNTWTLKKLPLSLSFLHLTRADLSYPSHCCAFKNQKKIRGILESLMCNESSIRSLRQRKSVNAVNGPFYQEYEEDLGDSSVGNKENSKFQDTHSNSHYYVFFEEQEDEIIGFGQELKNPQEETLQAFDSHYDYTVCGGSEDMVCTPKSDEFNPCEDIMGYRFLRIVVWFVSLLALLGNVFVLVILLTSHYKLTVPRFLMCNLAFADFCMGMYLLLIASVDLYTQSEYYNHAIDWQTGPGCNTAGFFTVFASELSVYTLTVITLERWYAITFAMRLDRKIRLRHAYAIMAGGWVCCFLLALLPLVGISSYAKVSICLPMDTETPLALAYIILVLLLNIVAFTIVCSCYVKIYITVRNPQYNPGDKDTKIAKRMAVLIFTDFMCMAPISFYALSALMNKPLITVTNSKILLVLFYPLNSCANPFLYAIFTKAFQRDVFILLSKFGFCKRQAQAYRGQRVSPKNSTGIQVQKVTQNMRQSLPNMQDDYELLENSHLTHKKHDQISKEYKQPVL
Residues, ends and D or L forms follow the SMILES beside them.
readoutType: EC50 (µM)
Give a bare numeral; the unit µM is implied.

CC[C@H](C)[C@H](NC(=O)[C@H](Cc1c[nH]cn1)NC(=O)[C@H](CCSC)NC(=O)[C@@H](NC(=O)[C@H](Cc1ccc(O)cc1)NC(=O)[C@H](CCC(=O)O)NC(=O)[C@@H](NC(=O)[C@@H]1CCCN1C(=O)[C@@H](NC(=O)[C@H](CS)NC(=O)[C@@H](N)Cc1ccccc1)[C@@H](C)CC)[C@@H](C)O)[C@@H](C)O)C(=O)N[C@@H](CCC(=O)O)C(=O)N[C@@H](CCCNC(=N)N)C(=O)N[C@@H](CCCNC(=N)N)C(=O)N[C@@H](CCC(=O)O)C(N)=O [β1-15] (H-FCIPTEYTMHIERRE-NH2; N-terminus assumed): 1160
C[C@@H](O)[C@H](NC(=O)[C@H](CS)NC(=O)[C@H](Cc1ccc(O)cc1)NC(=O)[C@H](CC(N)=O)NC(=O)[C@@H](NC(=O)[C@@H](N)CCCCN)[C@@H](C)O)C(=O)N[C@@H](CCCCN)C(=O)N1CCC[C@H]1C(=O)N[C@@H](CCC(N)=O)C(=O)N[C@@H](CCCCN)C(=O)N[C@@H](CO)C(=O)N[C@@H](Cc1ccc(O)cc1)C(=O)O [β101-112] (H-KTNYCTKPQKSY-OH): 106
CC[C@H](C)[C@H](NC(=O)[C@H](CC(=O)O)NC(=O)[C@H](CCCNC(=N)N)NC(=O)[C@@H](NC(=O)[C@H](CCSC)NC(=O)[C@@H](N)CS)[C@@H](C)O)C(=O)N[C@@H](CC(N)=O)C(=O)NCC(=O)N[C@@H](CCCCN)C(=O)N[C@@H](CC(C)C)C(=O)N[C@@H](Cc1ccccc1)C(=O)N[C@@H](CC(C)C)C(=O)N1CCC[C@H]1C(=O)N[C@@H](CCCCN)C(=O)N[C@@H](Cc1ccc(O)cc1)C(N)=O [β31-45] (H-CMTRDINGKLFLPKY-NH2): 200

Kindly review the next molecule as well.
Task: Complete the entry with EC50 for CC(C)C[C@H](NC(=O)[C@H](C)NC(=O)[C@H](Cc1ccc(O)cc1)NC(=O)[C@H](CCCCN)NC(=O)[C@@H]1CCCN1C(=O)[C@H](CC(C)C)NC(=O)[C@@H](N)Cc1ccccc1)C(=O)N[C@@H](CO)C(=O)N[C@@H](CCC(N)=O)C(=O)N[C@@H](CC(=O)O)C(=O)N[C@H](C(=O)N[C@@H](CS)C(=O)N[C@H](C(=O)N[C@@H](Cc1ccc(O)cc1)C(=O)N[C@@H](CCCNC(=N)N)C(N)=O)[C@@H](C)O)C(C)C [β41-55] (H-FLPKYALSQDVCTYR-NH2)
Output: 216

* * *

target: TSH receptor on human thyroid membranes (Homo sapiens, UniProt P16473); construct: Crude membrane preparations were prepared from the frozen tissue; experiment: Human thyroid membrane TSH radio-receptor assay (inhibition of 125I-bTSH binding); conditions: concentration inhibiting 125I-bTSH binding to human thyroid membrane by 50%; mean ± se of at least 3 assays
Sequence (P16473 21-764): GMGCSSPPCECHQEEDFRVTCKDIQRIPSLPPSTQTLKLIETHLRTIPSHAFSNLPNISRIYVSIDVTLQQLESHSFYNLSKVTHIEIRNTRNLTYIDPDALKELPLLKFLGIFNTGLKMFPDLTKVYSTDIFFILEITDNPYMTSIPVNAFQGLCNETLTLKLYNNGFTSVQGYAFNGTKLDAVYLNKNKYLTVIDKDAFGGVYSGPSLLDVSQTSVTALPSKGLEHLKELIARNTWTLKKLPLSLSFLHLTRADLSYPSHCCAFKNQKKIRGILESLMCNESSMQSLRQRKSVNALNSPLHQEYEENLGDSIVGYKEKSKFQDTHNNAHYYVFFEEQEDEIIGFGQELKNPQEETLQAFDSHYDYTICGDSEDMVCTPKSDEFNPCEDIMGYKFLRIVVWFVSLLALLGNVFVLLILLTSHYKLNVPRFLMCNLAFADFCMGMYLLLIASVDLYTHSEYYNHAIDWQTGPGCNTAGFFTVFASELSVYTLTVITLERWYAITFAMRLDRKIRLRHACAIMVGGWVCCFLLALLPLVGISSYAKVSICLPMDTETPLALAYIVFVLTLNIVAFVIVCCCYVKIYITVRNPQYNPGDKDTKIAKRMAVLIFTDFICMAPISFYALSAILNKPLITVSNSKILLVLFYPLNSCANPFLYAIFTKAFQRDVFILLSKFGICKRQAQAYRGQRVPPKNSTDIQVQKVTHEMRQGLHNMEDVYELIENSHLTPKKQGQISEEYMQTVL
Residues, ends and D or L forms follow the SMILES beside them.
readoutType: EC50 (µM)
// units = µM; emit number, no label

CC[C@H](C)[C@H](NC(=O)[C@H](CC(=O)O)NC(=O)[C@H](CCCNC(=N)N)NC(=O)[C@@H](NC(=O)[C@H](CCSC)NC(=O)[C@@H](N)CS)[C@@H](C)O)C(=O)N[C@@H](CC(N)=O)C(=O)NCC(=O)N[C@@H](CCCCN)C(=O)N[C@@H](CC(C)C)C(=O)N[C@@H](Cc1ccccc1)C(=O)N[C@@H](CC(C)C)C(=O)N1CCC[C@H]1C(=O)N[C@@H](CCCCN)C(=O)N[C@@H](Cc1ccc(O)cc1)C(N)=O [β31-45] (H-CMTRDINGKLFLPKY-NH2): 186

Here is another compound to look at.
Task: Complete the entry with EC50 for CC[C@H](C)[C@H](NC(=O)[C@H](Cc1c[nH]cn1)NC(=O)[C@H](CCSC)NC(=O)[C@@H](NC(=O)[C@H](Cc1ccc(O)cc1)NC(=O)[C@H](CCC(=O)O)NC(=O)[C@@H](NC(=O)[C@@H]1CCCN1C(=O)[C@@H](NC(=O)[C@H](CS)NC(=O)[C@@H](N)Cc1ccccc1)[C@@H](C)CC)[C@@H](C)O)[C@@H](C)O)C(=O)N[C@@H](CCC(=O)O)C(=O)N[C@@H](CCCNC(=N)N)C(=O)N[C@@H](CCCNC(=N)N)C(=O)N[C@@H](CCC(=O)O)C(N)=O [β1-15] (H-FCIPTEYTMHIERRE-NH2; N-terminus assumed)
Output: 331

* * *

biological target: TSH receptor on human thyroid membranes (Homo sapiens, UniProt P16473); construct: Crude membrane preparations were prepared from the frozen tissue; test: Human thyroid membrane TSH radio-receptor assay (inhibition of 125I-bTSH binding); conditions: concentration inhibiting 125I-bTSH binding to human thyroid membrane by 50%; mean ± se of at least 3 assays
Residues, ends and D or L forms follow the SMILES beside them.
Readings of EC50 for the listed compounds
Provide the reading as a plain figure in µM.

Task: Report EC50 from TSH receptor on human thyroid membranes (Homo sapiens, UniProt P16473) testing of C[C@@H](O)[C@H](NC(=O)[C@H](CS)NC(=O)[C@H](Cc1ccc(O)cc1)NC(=O)[C@H](CC(N)=O)NC(=O)[C@@H](NC(=O)[C@@H](N)CCCCN)[C@@H](C)O)C(=O)N[C@@H](CCCCN)C(=O)N1CCC[C@H]1C(=O)N[C@@H](CCC(N)=O)C(=O)N[C@@H](CCCCN)C(=O)N[C@@H](CO)C(=O)N[C@@H](Cc1ccc(O)cc1)C(=O)O [β101-112] (H-KTNYCTKPQKSY-OH)
Output: 80

Task: # return EC50 of CC(C)C[C@H](NC(=O)[C@H](C)NC(=O)[C@H](Cc1ccc(O)cc1)NC(=O)[C@H](CCCCN)NC(=O)[C@@H]1CCCN1C(=O)[C@H](CC(C)C)NC(=O)[C@@H](N)Cc1ccccc1)C(=O)N[C@@H](CO)C(=O)N[C@@H](CCC(N)=O)C(=O)N[C@@H](CC(=O)O)C(=O)N[C@H](C(=O)N[C@@H](CS)C(=O)N[C@H](C(=O)N[C@@H](Cc1ccc(O)cc1)C(=O)N[C@@H](CCCNC(=N)N)C(N)=O)[C@@H](C)O)C(C)C [β41-55] (H-FLPKYALSQDVCTYR-NH2) (system: TSH receptor on human thyroid membranes (Homo sapiens, UniProt P16473))
Output: 242

* * *

target: TSH receptor on human thyroid membranes (Homo sapiens, UniProt P16473); construct: Crude membrane preparations were prepared from the frozen tissue; test: Human thyroid membrane TSH radio-receptor assay (inhibition of 125I-bTSH binding); conditions: concentration inhibiting 125I-bTSH binding to human thyroid membrane by 50%; mean ± se of at least 3 assays
Residues, ends and D or L forms follow the SMILES beside them.
readoutType: EC50

CC[C@H](C)[C@H](N)C(=O)N[C@@H](CCC(=O)O)C(=O)N[C@@H](CCCNC(=N)N)C(=O)N[C@@H](CCCNC(=N)N)C(=O)N[C@@H](CCC(=O)O)C(=O)N[C@@H](CS)C(=O)N[C@@H](C)C(=O)N[C@@H](Cc1ccc(O)cc1)C(=O)N[C@@H](CS)C(=O)N[C@@H](CC(C)C)C(=O)N[C@H](C(=O)N[C@H](C(=O)N[C@@H](CC(N)=O)C(=O)N[C@H](C(=O)N[C@H](C(N)=O)[C@@H](C)O)[C@@H](C)O)[C@@H](C)CC)[C@@H](C)O [β11-25] (H-IERRECAYCLTINTT-NH2): > 1000 µM
CC[C@H](C)[C@H](NC(=O)[C@H](Cc1ccccc1)NC(=O)[C@H](CC(=O)O)NC(=O)[C@H](CCCNC(=N)N)NC(=O)[C@H](Cc1ccc(O)cc1)NC(=O)[C@@H](NC(=O)[C@H](CS)NC(=O)[C@@H](N)C(C)C)[C@@H](C)O)C(=O)N[C@@H](Cc1ccc(O)cc1)C(=O)N[C@@H](CCCNC(=N)N)C(=O)N[C@H](C(=O)N[C@H](C(=O)N[C@@H](CCC(=O)O)C(=O)N[C@H](C(=O)N1CCC[C@H]1C(N)=O)[C@@H](C)CC)C(C)C)[C@@H](C)O [β51-65] (H-VCTYRDFIYRTVEIP-NH2): > 1000 µM

Kindly review the next molecule as well.
Task: Given CC[C@H](C)[C@H](NC(=O)[C@H](CCC(=O)O)NC(=O)[C@@H](NC(=O)[C@@H](N)[C@@H](C)O)C(C)C)C(=O)N1CCC[C@H]1C(=O)NCC(=O)N[C@@H](CS)C(=O)N1CCC[C@H]1C(=O)N[C@@H](CC(C)C)C(=O)N[C@@H](Cc1c[nH]cn1)C(=O)N[C@H](C(=O)N[C@@H](C)C(=O)N1CCC[C@H]1C(=O)N[C@@H](Cc1ccc(O)cc1)C(=O)N[C@@H](Cc1ccccc1)C(N)=O)C(C)C [β61-75] (H-TVEIPGCPLHVAPYF-NH2) , respond with its EC50.
Output: > 1000 µM

Values from patent US5196513A
